What log10 IC50 was measured for each of the following?
# study.target: Dual specificity protein phosphatase 3 (Homo sapiens, UniProt P51452)
# Sequence (P51452 whole entry): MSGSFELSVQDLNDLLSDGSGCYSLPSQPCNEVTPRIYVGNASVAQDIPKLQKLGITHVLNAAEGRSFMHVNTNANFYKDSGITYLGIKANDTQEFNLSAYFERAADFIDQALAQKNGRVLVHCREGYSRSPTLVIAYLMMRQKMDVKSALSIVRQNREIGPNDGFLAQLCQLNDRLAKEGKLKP
# protocol.summary: VHR phosphatase inhibition, dose response, selectivity assay for STEP inhibitor project, biochemical (AID 602374)
Note: values are log10 of IC50 expressed in nM.

Lookup: I would be grateful if you could share the reported log10 IC50 for O=C(N/N=C/C1C=CC=CC1=O)c1cccc([N+](=O)[O-])c1 (stereo not given) [MLS002667988] .
Found: 3.50

Lookup: I would be grateful if you could share the reported log10 IC50 for COc1ccc(OC)c(-n2c(O)c3o[nH]c(-c4ccccc4Cl)c-3c2=O)c1 [SMR000046218] .
Found: 2.92

Lookup: I would be grateful if you could share the reported log10 IC50 for O=C1C(=O)N(CCCO)C(c2ccc(Br)cc2)C1C(=O)c1ccc(Br)cc1 (stereo not given) .
Found: 4.87

Lookup: I would be grateful if you could share the reported log10 IC50 for `COc1ccc(CN=Nc2nc(O)c(CC(=O)O)s2)cc1OCc1ccc(Cl)cc1Cl` .
Found: 3.68

Lookup: I would be grateful if you could share the reported log10 IC50 for C=c1c(O)c(O)c(=C2C(=O)C(=O)C(C)C(=O)C2=O)c(O)c1O (stereo not given) .
Found: 3.10

Lookup: I would be grateful if you could share the reported log10 IC50 for CCN(CC)P(=O)(NC(=O)C(Cl)(Cl)Cl)N(CC)CC [MLS000564159] .
Found: 3.51

Lookup: I would be grateful if you could share the reported log10 IC50 for `CCOc1cc(CN=Nc2nc(O)c(CC(=O)O)s2)ccc1OCc1ccc(Cl)cc1Cl` .
Found: 3.38

Lookup: I would be grateful if you could share the reported log10 IC50 for CSc1ccc(CN=Nc2ccc(S(=O)(=O)Nc3ccccc3C(=O)O)cc2[N+](=O)[O-])cc1 [MLS002245633] .
Found: 3.10

Lookup: I would be grateful if you could share the reported log10 IC50 for S=C1N=C(C23CC4CC(CC(C4)C2)C3)CC(c2ccc3c(c2)OCO3)N1 (stereo not given) .
Found: 3.55

Lookup: I would be grateful if you could share the reported log10 IC50 for S=C1N=C2C(=C3SCCS3)CCCC2C(c2ccccc2)N1 (stereo not given) [MLS000516376] .
Found: 3.09

Numbers sourced from BindingDB's records for doi:10.7270/Q2959G44.
